Each recorded value in this set is attributed to ChEMBL document CHEMBL1134098.

system-under-test: GABA-A receptor; alpha-2/beta-3/gamma-2 (Homo sapiens, UniProt P18507+P28472+P47869)
Sequence (P18507 whole entry): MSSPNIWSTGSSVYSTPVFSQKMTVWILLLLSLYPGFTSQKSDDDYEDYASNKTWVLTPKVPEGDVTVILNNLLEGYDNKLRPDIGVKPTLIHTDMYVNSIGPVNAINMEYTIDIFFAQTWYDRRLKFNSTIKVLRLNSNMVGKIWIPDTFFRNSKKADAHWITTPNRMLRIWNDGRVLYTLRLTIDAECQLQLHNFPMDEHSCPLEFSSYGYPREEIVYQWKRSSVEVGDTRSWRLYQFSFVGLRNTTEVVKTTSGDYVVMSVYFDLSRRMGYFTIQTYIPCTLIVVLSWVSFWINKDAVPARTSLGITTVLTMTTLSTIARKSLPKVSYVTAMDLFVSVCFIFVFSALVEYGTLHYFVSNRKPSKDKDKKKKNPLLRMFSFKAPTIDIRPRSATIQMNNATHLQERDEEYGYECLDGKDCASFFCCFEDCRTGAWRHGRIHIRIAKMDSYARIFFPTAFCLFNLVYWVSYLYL
Sequence (P28472 whole entry): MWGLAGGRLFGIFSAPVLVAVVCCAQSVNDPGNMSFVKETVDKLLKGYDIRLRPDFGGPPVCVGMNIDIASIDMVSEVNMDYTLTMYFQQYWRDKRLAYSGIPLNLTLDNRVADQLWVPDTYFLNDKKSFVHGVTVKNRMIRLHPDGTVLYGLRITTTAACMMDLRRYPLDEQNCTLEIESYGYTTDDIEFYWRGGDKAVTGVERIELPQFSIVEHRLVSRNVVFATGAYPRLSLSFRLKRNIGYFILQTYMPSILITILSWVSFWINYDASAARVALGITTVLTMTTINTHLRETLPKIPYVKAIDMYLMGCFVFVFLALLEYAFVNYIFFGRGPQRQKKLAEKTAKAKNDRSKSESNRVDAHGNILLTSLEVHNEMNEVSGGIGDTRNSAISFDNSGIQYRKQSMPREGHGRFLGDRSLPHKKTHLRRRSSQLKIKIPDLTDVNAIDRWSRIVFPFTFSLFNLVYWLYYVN
Sequence (P47869 whole entry): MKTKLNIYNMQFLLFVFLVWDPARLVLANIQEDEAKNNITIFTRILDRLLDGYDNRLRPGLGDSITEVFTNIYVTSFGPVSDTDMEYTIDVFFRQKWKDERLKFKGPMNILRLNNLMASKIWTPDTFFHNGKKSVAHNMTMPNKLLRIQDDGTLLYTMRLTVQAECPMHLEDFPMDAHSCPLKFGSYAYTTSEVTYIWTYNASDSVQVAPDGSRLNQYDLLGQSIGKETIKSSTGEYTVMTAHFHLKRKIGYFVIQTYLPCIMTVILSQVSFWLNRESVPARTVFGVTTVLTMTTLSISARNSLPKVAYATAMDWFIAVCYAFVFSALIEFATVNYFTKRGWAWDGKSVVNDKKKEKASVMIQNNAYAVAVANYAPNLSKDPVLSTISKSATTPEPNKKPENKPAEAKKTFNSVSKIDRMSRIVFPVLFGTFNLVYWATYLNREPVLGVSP
test-protocol: Effective dose for agonist activity on human Gamma-aminobutyric acid A receptor alpha-2-beta-3-gamma-2 in Xenopus oocytes
Type: functional, cell-based, Oocyte
measure: EC50
Kindly format the answer as number then unit.

Fill blank: measured EC50 of the molecule `O=[Se](O)C1CCNCC1` is ____.
170 µM

----------
system-under-test: GABA A receptor alpha-4/beta-3/gamma-2 (Homo sapiens, UniProt P18507+P28472+P48169)
Sequence (P18507 whole entry): as the sequence (P18507 whole entry) above
Sequence (P28472 whole entry): as the sequence (P28472 whole entry) above
Sequence (P48169 whole entry): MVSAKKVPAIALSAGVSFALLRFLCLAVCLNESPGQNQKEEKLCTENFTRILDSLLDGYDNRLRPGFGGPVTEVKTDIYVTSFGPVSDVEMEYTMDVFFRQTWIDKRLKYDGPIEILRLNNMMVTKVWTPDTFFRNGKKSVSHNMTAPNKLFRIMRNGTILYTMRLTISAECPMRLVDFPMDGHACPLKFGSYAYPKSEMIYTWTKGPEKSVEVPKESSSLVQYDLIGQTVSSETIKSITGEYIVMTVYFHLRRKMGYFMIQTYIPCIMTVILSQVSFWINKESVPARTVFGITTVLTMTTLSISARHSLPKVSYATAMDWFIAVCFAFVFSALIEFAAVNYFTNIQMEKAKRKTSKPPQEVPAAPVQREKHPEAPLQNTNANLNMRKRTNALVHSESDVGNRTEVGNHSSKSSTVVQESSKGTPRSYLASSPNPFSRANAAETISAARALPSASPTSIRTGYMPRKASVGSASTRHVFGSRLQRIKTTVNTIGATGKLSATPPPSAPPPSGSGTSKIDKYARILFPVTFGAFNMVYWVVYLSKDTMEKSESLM
test-protocol: Effective agonist dose for human Gamma-aminobutyric acid A receptor alpha-4-beta-3-gamma-2
measure: pEC50
Please report pEC50 as the negative decimal logarithm of the molar concentration, giving only the number.

{"chemical-structure": "O=C(O)C1=CCNCC1", "system-under-test": "GABA A receptor alpha-4/beta-3/gamma-2 (Homo sapiens, UniProt P18507+P28472+P48169)", "pEC50": 3.74}
{"chemical-structure": "O=C(O)C1CCNCC1", "system-under-test": "GABA A receptor alpha-4/beta-3/gamma-2 (Homo sapiens, UniProt P18507+P28472+P48169)", "pEC50": 3.52}
{"chemical-structure": "O=C(O)Cc1c[nH]cn1", "system-under-test": "GABA A receptor alpha-4/beta-3/gamma-2 (Homo sapiens, UniProt P18507+P28472+P48169)", "pEC50": 3.47}
{"chemical-structure": "NCCC[Se](=O)O", "system-under-test": "GABA A receptor alpha-4/beta-3/gamma-2 (Homo sapiens, UniProt P18507+P28472+P48169)", "pEC50": 2.68}
{"chemical-structure": "O=[Se](O)C1CCNCC1", "system-under-test": "GABA A receptor alpha-4/beta-3/gamma-2 (Homo sapiens, UniProt P18507+P28472+P48169)", "pEC50": 3.80}

Find the recorded pEC50 belonging to `O=[PH](O)C1CCNCC1` and report it.
3.85

Can you share its pEC50? I mean this molecule: `O=S(=O)(O)C1CCNCC1`
3.70
